From: patent US5525595A

- Test system: homologous passive cutaneous anaphylaxis (PCA) reaction
- protocolSummary: Effect on homologous passive cutaneous anaphylaxis (PCA) reaction in rats
- Format: in vivo, rats (Male wistar rats)
- condition: Comparative Test Example 1, Table 5, compared compounds of EP-A-0598117
property: Inhibition (%) of PCA reaction, compared compounds
Give the value in % but do not write % after it.

For the molecule COc1ccc2c(O)c(OC)c(=O)oc2c1 [Compared compound 1, reference compound] , give its measured Inhibition (%) of PCA reaction, compared compounds value. 28.9

Indicate its recorded Inhibition (%) of PCA reaction, compared compounds; the molecule in question is CCCCCCCCCCOc1ccc2c(OC)c(O)c(=O)oc2c1 [Compared compound 4, reference compound] 26.4

Specify measured Inhibition (%) of PCA reaction, compared compounds for CCCCCCCCOc1ccc2c(O)c(OC)c(=O)oc2c1 [Compared compound 2, reference compound] . 32.8

Provide only the value of recorded Inhibition (%) of PCA reaction, compared compounds for COc1ccc2c(OC)c(O)c(=O)oc2c1 [Compared compound 3, reference compound] 30.6
